Origin of the recorded values: the FLAb antibody collection (doi:10.7554/elife.23156)

A collection of variants and their measured pKd
B1: scFv; the commonest letter at each place (parent)
chain 1: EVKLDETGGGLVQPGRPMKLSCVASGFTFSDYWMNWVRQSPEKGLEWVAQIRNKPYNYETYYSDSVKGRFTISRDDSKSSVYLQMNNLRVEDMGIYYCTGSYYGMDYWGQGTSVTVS
chain 2: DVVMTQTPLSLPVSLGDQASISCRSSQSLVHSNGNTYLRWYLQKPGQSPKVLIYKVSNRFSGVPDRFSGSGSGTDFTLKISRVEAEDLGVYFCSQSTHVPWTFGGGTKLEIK

variants of: B1; test: Kd (Tite-Seq); conditions: with fluorescein; format: scFv 4-4-20, heavy + light
pKd: −log10 of the molar value.

VARIANT SPEC	pKd
chain 1 D31S M34C N35Y	≤ 5.00

Prompt: Find the recorded pKd belonging to chain 1 W36K and report it.
Completion: ≤ 5.00

Prompt: Same question, chain 1 Y103D this time
Completion: 7.35

Prompt: Same question, chain 1 Y103R G109V this time
Completion: ≤ 5.00

Prompt: Same question, chain 1 Y102N this time
Completion: 7.76

Prompt: Same question, chain 1 F29Q Y32V this time
Completion: ≤ 5.00

Prompt: Same question, chain 1 W33N N35M this time
Completion: ≤ 5.00

Prompt: Same question, chain 1 D106I G109C this time
Completion: ≤ 5.00

Prompt: Same question, chain 1 F29A D31P this time
Completion: ≤ 5.00

Prompt: Same question, chain 1 F29V N35V this time
Completion: ≤ 5.00

Prompt: Same question, chain 1 S101Q M105V this time
Completion: ≤ 5.00

Prompt: Same question, chain 1 G100H W108F this time
Completion: 8.13

Prompt: Same question, chain 1 D31N N35S V37A this time
Completion: ≤ 5.00

Prompt: Same question, chain 1 M105W W108V this time
Completion: 9.34

Prompt: Same question, chain 1 M34R W36P this time
Completion: ≤ 5.00

Prompt: Same question, chain 1 G100W S101P D106M this time
Completion: ≤ 5.00

Prompt: Same question, chain 1 M105G W108N this time
Completion: ≤ 5.00

Prompt: Same question, chain 1 W33V V37F this time
Completion: ≤ 5.00
